These data points were gathered from PubChem BioAssay AID602396.

A collection of compounds and their measured inhibition
target: Nuclear receptor subfamily 5 group A member 2 (Homo sapiens); assay: LRH-1 (NR5A2) inverse agonists, primary screen, cell-based, luminescence, HEK293T, StAR-luciferase reporter (AID 602396); conditions: LRH-1 transfected, 24 h, at 3.6 µM, active compounds read high;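 note: 0% = DMSO wells and 100% = reporter-only cells lacking LRH-1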
About 460 (0.13%) of roughly 360,000 compounds were called active. Only a selection was taken, and actives are over-represented in it overall.
readout.label: inhibition

# compound, observed.result
data = [
    ("COC(=O)c1cn(C)c2ccc(S(=O)(=O)N3CC(C)CC(C)C3)cc2c1=O (configuration not stated)", "-9.25% (inactive)"),
    ("COCc1cc(C)n(CC(=O)NCC2CCCO2)c(=O)c1C#N (configuration not stated)", "-7.89% (inactive)"),
    ("Cn1cc(CNC(=O)c2ccc(OC3CCN(Cc4ccccn4)CC3)cc2)cn1", "16.2% (inactive)"),
    ("Cn1c(N)c(C(=O)COC(=O)COc2ccc(Cl)cc2)c(=O)n(C)c1=O", "4.34% (inactive)"),
    ("Cc1nc(COc2cc3oc(=O)cc(C)c3cc2Cl)cs1", "-10.4% (inactive)"),
    ("O=C(NCc1ccncc1)C1CCCN(S(=O)(=O)c2ccc(Br)cc2)C1 (configuration not stated)", "2.98% (inactive)"),
    ("COc1ccccc1N1CCN(CC(=O)NCCc2ccc(S(N)(=O)=O)cc2)CC1", "16.7% (inactive)"),
    ("O=C(CC(O)(C(F)(F)F)C(F)(F)F)Nc1ccc(Cl)c(Cl)c1", "100% (active)"),
    ("CCCCn1c(N)c(N(CC)C(=O)c2ccccc2C(F)(F)F)c(=O)[nH]c1=O", "-19.4% (inactive)"),
    ("COc1ccccc1-n1nnnc1S(=O)(=O)Cc1ccc(Cl)cc1", "47.7% (inactive)"),
    ("CN(CCc1ccccn1)C(=O)c1ccc(OC2CCN(Cc3ccccn3)CC2)cc1", "-11.4% (inactive)"),
    ("COc1cc(OC)c2c(c1)OC(=O)CC2c1cc(OC)c(OC)c(OC)c1 (configuration not stated)", "2.48% (inactive)"),
    ("Cc1ccc(S(=O)(=O)N2C3C=CC(C3)C2C(=O)O)cc1 (configuration not stated)", "-13.6% (inactive)"),
    ("Cc1ccc(C(=O)COC(=O)CCN2C(=O)C3C4CC(C(Br)C4Br)C3C2=O)cc1 (configuration not stated)", "-1.24% (inactive)"),
    ("COC(=O)c1ccc(CSc2ccc(S(=O)(=O)N3CCCCC3)cn2)cc1", "0.83% (inactive)"),
    ("O=C(CN1CCN(S(=O)(=O)c2ccc3ccccc3c2)CC1)NC(=O)NC1CCCCC1", "14.8% (inactive)"),
    ("O=C(Nc1c2c(nn1-c1cccc(Cl)c1)CS(=O)(=O)C2)c1cccs1", "17.8% (inactive)"),
    ("OCCCNc1nccc(-c2cc(Nc3cccc(Cl)c3)ncn2)n1", "96.8% (active)"),
    ("CC(c1cccnc1)N(CCN(C)C)C(=O)Nc1ccc(Cl)c(Cl)c1 (configuration not stated)", "-1.18% (inactive)"),
    ("Cc1cccc(C(=O)C(O)(c2ccccc2)C2CCCCC2=O)c1 (configuration not stated)", "-15.3% (inactive)"),
    ("CC1(C)CC(N2CCN(C(c3ccccc3)c3ccccc3)CC2)=CC(=[N+]2CCCCC2)C1", "91.7% (active)"),
    ("CCN(CC)CCCNC(=O)c1c(O)c2cc(F)cc3c2n(c1=O)C(C)CC3 (configuration not stated)", "-10.8% (inactive)"),
    ("Nc1ccc(OCC(O)C[n+]2ccc(CCS(=O)(=O)[O-])cc2)cc1 (configuration not stated)", "-10.5% (inactive)"),
    ("C=CCn1c2ccccc2c2nnc(SCc3[nH]c(=O)[nH]c3C(=O)CCCCC(=O)OCC)nc21", "9.39% (inactive)"),
    ("O=C(Nc1ccc([N+](=O)[O-])cc1)C1(c2ccccc2)CCOCC1", "-9.79% (inactive)"),
    ("COC(=O)[C@]1(C)N[C@H](CN(C)C(=O)c2ccc(C(C)(C)C)cc2)[C@@H]2C(=O)N(C)C(=O)[C@@H]21", "-20.1% (inactive)"),
    ("CC(Nc1nc(C(F)(F)F)nc2ccccc12)c1cccs1 (configuration not stated)", "14.1% (inactive)"),
    ("O=C(O)C1=C(C(=O)O)C2CCC1C2", "-20.2% (inactive)"),
    ("Cc1noc(C)c1NC(=O)Nc1cccc2c1O[C@H](CN(C)S(=O)(=O)c1c(C)noc1C)[C@@H](C)CN([C@H](C)CO)C2=O", "-28.3% (inactive)"),
    ("O=C(Nc1ccc(Cl)c(Cl)c1)N1CC=C(c2ccccc2)CC1", "-22.6% (inactive)"),
    ("CCN(CC(=O)NCc1cccs1)C(=O)c1ccc(OC)c(S(=O)(=O)N2CCOCC2)c1", "-9.13% (inactive)"),
    ("CCN(CC)S(=O)(=O)c1ccc(OC)c(NC(=O)CCc2c(C)noc2C)c1", "8.03% (inactive)"),
    ("O=C(O)CCC(=O)N(Cc1ccco1)c1nc(-c2ccccc2)cs1", "-15.1% (inactive)"),
    ("COCCNC(=O)C1CCN(S(=O)(=O)c2ccc3c(c2)OCCO3)CC1", "8.61% (inactive)"),
    ("COc1ccc(C)cc1NC(=O)CSc1cccc[n+]1[O-]", "-14.4% (inactive)"),
    ("CCCCn1c(=S)[nH]c2ncccc2c1=O", "0.69% (inactive)"),
    ("C=CCSC(CC)(CC)C(N)=O", "16.1% (inactive)"),
    ("C[C@@H]1CN([C@@H](C)CO)C(=O)CCCn2cc(nn2)CO[C@H]1CN(C)S(=O)(=O)c1ccc(-n2cccn2)cc1", "1.12% (inactive)"),
    ("C[C@H](NC(=O)C1CCN(S(=O)(=O)c2ccccc2)CC1)C(=O)NCc1ccccc1", "-15.6% (inactive)"),
    ("COC(=O)Cc1cnc(NC(=O)CSc2nc(C(C)C)cc(=O)[nH]2)s1", "7.32% (inactive)"),
    ("CC(=O)N1CCSc2ccc(S(=O)(=O)N3CCC(C)CC3)cc21", "2.83% (inactive)"),
    ("CCN(C(=O)COC(=O)CCC(=O)c1cccs1)C1CCCCC1", "4.1% (inactive)"),
]
